Sourced from IntAct's records for PubMed 31515488

B1: X-linked retinitis pigmentosa GTPase regulator (Homo sapiens), Q92834 (parent)
chain: MREPEELMPDSGAVFTFGKSKFAENNPGKFWFKNDVPVHLSCGDEHSAVVTGNNKLYMFGSNNWGQLGLGSKSAISKPTCVKALKPEKVKLAACGRNHTLVSTEGGNVYATGGNNEGQLGLGDTEERNTFHVISFFTSEHKIKQLSAGSNTSAALTEDGRLFMWGDNSEGQIGLKNVSNVCVPQQVTIGKPVSWISCGYYHSAFVTTDGELYVFGEPENGKLGLPNQLLGNHRTPQLVSEIPEKVIQVACGGEHTVVLTENAVYTFGLGQFGQLGLGTFLFETSEPKVIENIRDQTISYISCGENHTALITDIGLMYTFGDGRHGKLGLGLENFTNHFIPTLCSNFLRFIVKLVACGGCHMVVFAAPHRGVAKEIEFDEINDTCLSVATFLPYSSLTSGNVLQRTLSARMRRRERERSPDSFSMRRTLPPIEGTLGLSACFLPNSVFPRCSERNLQESVLSEQDLMQPEEPDYLLDEMTKEAEIDNSSTVESLGETTDILNMTHIMSLNSNEKSLKLSPVQKQKKQQTIGELTQDTALTENDDSDEYEEMSEMKEGKACKQHVSQGIFMTQPATTIEAFSDEEVGNDTGQVGPQADTDGEGLQKEVYRHENNNGVDQLDAKEIEKESDGGHSQKESEAEEIDSEKETKLAEIAGMKDLREREKSTKKMSPFFGNLPDRGMNTESEENKDFVKKRESCKQDVIFDSERESVEKPDSYMEGASESQQGIADGFQQPEAIEFSSGEKEDDEVETDQNIRYGRKLIEQGNEKETKPIISKSMAKYDFKCDRLSEIPEEKEGAEDSKGNGIEEQEVEANEENVKVHGGRKEKTEILSDDLTDKAEDHEFSKTEELKLEDVDEEINAENVESKKKTVGDDESVPTGYHSKTEGAERTNDDSSAETIEKKEKANLEERAICEYNENPKGYMLDDADSSSLEILENSETTPSKDMKKTKKIFLFKRVPSINQKIVKNNNEPLPEIKSIGDQIILKSDNKDADQNHMSQNHQNIPPTNTERRSKSCTIL
partner: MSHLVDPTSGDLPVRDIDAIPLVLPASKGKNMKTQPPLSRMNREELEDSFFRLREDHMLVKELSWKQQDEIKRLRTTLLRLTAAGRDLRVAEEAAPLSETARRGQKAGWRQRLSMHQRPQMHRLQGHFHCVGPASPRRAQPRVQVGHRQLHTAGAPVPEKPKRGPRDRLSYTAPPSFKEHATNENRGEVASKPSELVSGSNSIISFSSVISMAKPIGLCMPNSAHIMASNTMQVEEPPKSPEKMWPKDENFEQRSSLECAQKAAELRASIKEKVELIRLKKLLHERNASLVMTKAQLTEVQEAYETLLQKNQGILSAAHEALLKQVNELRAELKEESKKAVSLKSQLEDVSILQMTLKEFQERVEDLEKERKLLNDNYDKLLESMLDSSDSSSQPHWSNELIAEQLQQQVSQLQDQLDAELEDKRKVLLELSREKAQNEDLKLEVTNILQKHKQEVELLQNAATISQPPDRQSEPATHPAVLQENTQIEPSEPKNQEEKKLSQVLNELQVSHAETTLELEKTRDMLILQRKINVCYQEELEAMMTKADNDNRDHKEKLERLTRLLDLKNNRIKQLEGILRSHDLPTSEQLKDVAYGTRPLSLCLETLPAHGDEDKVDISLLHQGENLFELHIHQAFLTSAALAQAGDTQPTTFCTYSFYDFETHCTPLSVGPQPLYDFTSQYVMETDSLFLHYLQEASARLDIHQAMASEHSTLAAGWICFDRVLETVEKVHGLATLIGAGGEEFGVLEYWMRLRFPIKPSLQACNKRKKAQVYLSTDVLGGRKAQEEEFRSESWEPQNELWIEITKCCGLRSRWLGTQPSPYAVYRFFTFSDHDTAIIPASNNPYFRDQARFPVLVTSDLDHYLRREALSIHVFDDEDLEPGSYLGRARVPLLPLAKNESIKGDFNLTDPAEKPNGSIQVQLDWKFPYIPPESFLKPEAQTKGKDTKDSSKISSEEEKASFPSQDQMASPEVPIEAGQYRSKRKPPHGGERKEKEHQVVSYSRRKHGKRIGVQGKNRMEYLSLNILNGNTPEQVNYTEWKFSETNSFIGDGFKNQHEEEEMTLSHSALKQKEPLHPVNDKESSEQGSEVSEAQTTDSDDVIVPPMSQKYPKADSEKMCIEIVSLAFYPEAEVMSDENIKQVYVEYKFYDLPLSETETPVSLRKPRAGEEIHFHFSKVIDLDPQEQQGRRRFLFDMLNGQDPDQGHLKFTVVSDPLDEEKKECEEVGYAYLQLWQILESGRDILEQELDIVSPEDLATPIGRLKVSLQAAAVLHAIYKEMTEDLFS

variants of: B1; conditions: with rpgr1_human RPGRIP1, Q96KN7
MEASUREMENT KIND: effect of a mutation on the interaction

{"MUTANT CODE": "Q456R", "EXPERIMENTAL RESULT": "with no effect"}
{"MUTANT CODE": "C302S", "EXPERIMENTAL RESULT": "with no effect"}
{"MUTANT CODE": "Q184H", "EXPERIMENTAL RESULT": "with no effect"}
{"MUTANT CODE": "R425K", "EXPERIMENTAL RESULT": "with no effect"}
{"MUTANT CODE": "I75V", "EXPERIMENTAL RESULT": "with no effect"}

Input line: Field request: effect of a mutation on the interaction | item: I431V
Output line: with no effect
